B1: HDV Ribozyme (parent)
chain: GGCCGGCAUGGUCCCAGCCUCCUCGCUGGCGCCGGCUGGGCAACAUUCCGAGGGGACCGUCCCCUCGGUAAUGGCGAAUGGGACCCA

# Variants of: B1
# protocolDescription: self-cleavage, relative activity (ratio to wild type); higher = more cleavage; co-transcriptional
Tag: label 1 if measured self-cleavage is not below 0.4, label 0 if it is.

Study these solved cases before continuing.
Q) Please tell me: is the variant G11C G35A at or over 0.4 in terms of self-cleavage?
A) label 0

Q) Please tell me: is the variant G59A C61A at or over 0.4 in terms of self-cleavage?
A) label 1

Q) Please tell me: is the variant G52A A87G at or over 0.4 in terms of self-cleavage?
A) label 1

Q) Please tell me: is the variant C41A G73A at or over 0.4 in terms of self-cleavage?
A) label 1

Q) Please tell me: is the variant C33U G52U at or over 0.4 in terms of self-cleavage?
A) label 1

New cases:
Q) Please tell me: is the variant U23G C75A at or over 0.4 in terms of self-cleavage?
A) label 0

Q) Please tell me: is the variant G5U U65A at or over 0.4 in terms of self-cleavage?
A) label 1

Q) Please tell me: is the variant C19U C44A at or over 0.4 in terms of self-cleavage?
A) label 0

Q) Please tell me: is the variant G50A A56C at or over 0.4 in terms of self-cleavage?
A) label 1

Q) Please tell me: is the variant C7U U79A at or over 0.4 in terms of self-cleavage?
A) label 1

Q) Please tell me: is the variant U27A A87U at or over 0.4 in terms of self-cleavage?
A) label 1

Q) Please tell me: is the variant C19A C33G at or over 0.4 in terms of self-cleavage?
A) label 0

Q) Please tell me: is the variant A43G U72C at or over 0.4 in terms of self-cleavage?
A) label 1

Q) Please tell me: is the variant G10C A87G at or over 0.4 in terms of self-cleavage?
A) label 1

Q) Please tell me: is the variant C61G A71G at or over 0.4 in terms of self-cleavage?
A) label 1

Q) Please tell me: is the variant G6A A42G at or over 0.4 in terms of self-cleavage?
A) label 0
